# ASSAY_TARGET: 3-oxoacyl-[acyl-carrier-protein] synthase 3 (Escherichia coli)
# Sequence (C3TDZ2 whole entry): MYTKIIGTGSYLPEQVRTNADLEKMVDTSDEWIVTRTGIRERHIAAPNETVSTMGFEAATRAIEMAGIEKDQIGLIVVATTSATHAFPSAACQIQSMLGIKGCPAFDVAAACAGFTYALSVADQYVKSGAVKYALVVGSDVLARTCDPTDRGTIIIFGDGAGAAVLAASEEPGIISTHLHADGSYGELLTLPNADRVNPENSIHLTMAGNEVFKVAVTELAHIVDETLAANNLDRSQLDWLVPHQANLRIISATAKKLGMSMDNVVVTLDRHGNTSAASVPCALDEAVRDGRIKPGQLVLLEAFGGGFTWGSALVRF
# MEASUREMENT_NOTES: Inhibition of Escherichia coli FabH
pIC50: −log10 of the molar value.
Binary classification by pIC50, with 5 as an inclusive lower bound for 1; all other cases are -1.

>>> df
                                 smiles_data  group
 0                        S=C1SCCN1Cc1cccnc1     -1
 1     O=C1N(Cc2ccc(Oc3ccccc3)cc2)CCS1(=O)=O      1
 2                              CCCN1CCSC1=S     -1
 3                        CN1CCS(=O)(=O)C1=O     -1
 4                O=C1N(Cc2ccccc2)CCS1(=O)=O      1
 5                      CCCN1CCS(=O)(=O)C1=O     -1
 6                       S=C1SCCN1CCc1ccccc1     -1
 7                                CN1CCSC1=S     -1
 8                        S=C1SCCN1Cc1ccccc1     -1
 9    O=C1SCCN1Cc1ccc(Oc2ccc(C3CCCC3)cc2)cc1     -1
10                        O=C1SCCN1Cc1cccnc1     -1
11               O=C1N(CCc2ccccc2)CCS1(=O)=O      1
12    S=C1SCCN1Cc1ccc(Oc2ccc(C3CCCC3)cc2)cc1     -1
13             S=C1SCCN1Cc1ccc(Oc2ccccc2)cc1     -1
14  O=C1N(Cc2ccc(Oc3ccc(C4CCCC4)cc3)cc2)CCS1(=O)=O      1
